Source: the supplement of paper PMC9492666

Readings of relative cell viability for the listed molecules
Test system: MDA-MB-231;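 note: viability read by CCK-8 kit in 96-well plates, part of a combination screen pairing lipid-metabolism-targeting compounds with erastin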
testMethodNotes: relative cell viability, compound + erastin, vs DMSO (fraction of DMSO control); higher = less growth inhibition
measurementContext: 72 h
Counter-ions that a name gives are not always drawn.

- molecule: "O=C(O)CCCc1cc2cc(Cl)ccc2n1S(=O)(=O)c1ccc2ncsc2c1 [Lanifibranor] + CCOc1ccccc1-n1c(C(C)N2CCN(C(=O)COc3ccc(Cl)cc3)CC2)nc2ccccc2c1=O [erastin]"
  relative cell viability: 0.886
- molecule: "CC1=C[C@]2(O)O[C@@]3(CC2=C(C)C)[C@@H](C)CC[C@@H]13 [Curcumenol] + CCOc1ccccc1-n1c(C(C)N2CCN(C(=O)COc3ccc(Cl)cc3)CC2)nc2ccccc2c1=O [erastin]"
  relative cell viability: 0.639
- molecule: "CCN(CC)C(=O)N1CCN(C)CC1 [Diethylcarbamazine citrate] + CCOc1ccccc1-n1c(C(C)N2CCN(C(=O)COc3ccc(Cl)cc3)CC2)nc2ccccc2c1=O [erastin]"
  relative cell viability: 0.907
- molecule: "O=C(O)c1cc(F)c2nc(N3[C@@H]4CC[C@H]3C[C@@H](OCc3c(-c5ccccc5OC(F)(F)F)noc3C3CC3)C4)sc2c1 [Tropifexor] + CCOc1ccccc1-n1c(C(C)N2CCN(C(=O)COc3ccc(Cl)cc3)CC2)nc2ccccc2c1=O [erastin]"
  relative cell viability: 0.652
- molecule: "CCCCCC=CC(=O)CCc1ccc(O)c(OC)c1 [6-Shogaol] + CCOc1ccccc1-n1c(C(C)N2CCN(C(=O)COc3ccc(Cl)cc3)CC2)nc2ccccc2c1=O [erastin]"
  relative cell viability: 0.559
- molecule: "C=C1C[C@]2(O)O[C@@]3(CC2=C(C)C)[C@@H](C)CC[C@@H]13 [Isocurcumenol] + CCOc1ccccc1-n1c(C(C)N2CCN(C(=O)COc3ccc(Cl)cc3)CC2)nc2ccccc2c1=O [erastin]"
  relative cell viability: 0.662
- molecule: "c1ccc([C@H]2CN3CCSC3=N2)cc1 [Levamisole hydrochloride] + CCOc1ccccc1-n1c(C(C)N2CCN(C(=O)COc3ccc(Cl)cc3)CC2)nc2ccccc2c1=O [erastin]"
  relative cell viability: 0.779
- molecule: "O=C(OC(C(F)(F)F)C(F)(F)F)N1CCN(Cc2ccc(C(F)(F)F)cc2N2CCCC2)CC1 + CCOc1ccccc1-n1c(C(C)N2CCN(C(=O)COc3ccc(Cl)cc3)CC2)nc2ccccc2c1=O [erastin]"
  relative cell viability: 0.74
- molecule: "CCN(CC)CCN(Cc1ccc(-c2ccc(C(F)(F)F)cc2)cc1)C(=O)Cn1c(SCc2ccc(F)cc2)nc(=O)c2c1CCC2 [Darapladib] + CCOc1ccccc1-n1c(C(C)N2CCN(C(=O)COc3ccc(Cl)cc3)CC2)nc2ccccc2c1=O [erastin]"
  relative cell viability: 0.296
- molecule: "COc1ccc2c(=O)c(-c3ccccc3)coc2c1 [7-Methoxyisoflavone] + CCOc1ccccc1-n1c(C(C)N2CCN(C(=O)COc3ccc(Cl)cc3)CC2)nc2ccccc2c1=O [erastin]"
  relative cell viability: 0.68
- molecule: "CC(C)Cc1ccc([C@H](C)C(=O)O)cc1 [Dexibuprofen] + CCOc1ccccc1-n1c(C(C)N2CCN(C(=O)COc3ccc(Cl)cc3)CC2)nc2ccccc2c1=O [erastin]"
  relative cell viability: 0.642
- molecule: "CC1=C(C)C(=O)C(C(CCCCCC(=O)O)c2ccccc2)=C(C)C1=O (centres undefined) [Seratrodast] + CCOc1ccccc1-n1c(C(C)N2CCN(C(=O)COc3ccc(Cl)cc3)CC2)nc2ccccc2c1=O [erastin]"
  relative cell viability: 0.567
- molecule: "COc1ccc(-c2cc(=O)c3c(O)c(OC)c(OC)c(OC)c3o2)cc1OC + CCOc1ccccc1-n1c(C(C)N2CCN(C(=O)COc3ccc(Cl)cc3)CC2)nc2ccccc2c1=O [erastin]"
  relative cell viability: 0.784
- molecule: "O=C(Nc1ccc(C(O)(C(F)(F)F)C(F)(F)F)cc1)c1ccc(C(F)(F)F)cc1 + CCOc1ccccc1-n1c(C(C)N2CCN(C(=O)COc3ccc(Cl)cc3)CC2)nc2ccccc2c1=O [erastin]"
  relative cell viability: 0.693
- molecule: "CCC(=O)O[C@]1(C(=O)SCF)[C@H](C)C[C@H]2[C@@H]3C[C@H](F)C4=CC(=O)C=C[C@]4(C)[C@@]3(F)[C@@H](O)C[C@@]21C [Fluticasone propionate] + CCOc1ccccc1-n1c(C(C)N2CCN(C(=O)COc3ccc(Cl)cc3)CC2)nc2ccccc2c1=O [erastin]"
  relative cell viability: 0.545
- molecule: "O=C(Nc1ccncc1)c1cc([N+](=O)[O-])ccc1Cl + CCOc1ccccc1-n1c(C(C)N2CCN(C(=O)COc3ccc(Cl)cc3)CC2)nc2ccccc2c1=O [erastin]"
  relative cell viability: 0.726
- molecule: "CN(CCOc1ccc(CC2SC(=O)NC2=O)cc1)c1ccccn1 (centres undefined) [Rosiglitazone] + CCOc1ccccc1-n1c(C(C)N2CCN(C(=O)COc3ccc(Cl)cc3)CC2)nc2ccccc2c1=O [erastin]"
  relative cell viability: 0.697
- molecule: "CC(C)[C@H]1CC[C@H](C(=O)N[C@H](Cc2ccccc2)C(=O)O)CC1 [Nateglinide] + CCOc1ccccc1-n1c(C(C)N2CCN(C(=O)COc3ccc(Cl)cc3)CC2)nc2ccccc2c1=O [erastin]"
  relative cell viability: 0.734
- molecule: "CCCCCCCCCCCCCCOc1ccc(C(=O)O)o1 + CCOc1ccccc1-n1c(C(C)N2CCN(C(=O)COc3ccc(Cl)cc3)CC2)nc2ccccc2c1=O [erastin]"
  relative cell viability: 0.696
